Tested on: cAMP antibody (IBL cAMP-RIA)
Test: IBL cAMP-RIA
Type: binding
Conditions: EC50cAMP/EC50Analog
Response field label takes satisfied when Specificity IBL cAMP-RIA is strictly below 0.01 and not satisfied in all other cases.

compound | system_tested | discrete_label
O[C@@H]1[C@@H]2OP(O)(=S)OC[C@H]2O[C@H]1n1cnc2cc(Cl)c(Cl)cc21 (single isomer, unassigned) [Sp-5,6-DCl-cBIMPS] | cAMP antibody (IBL cAMP-RIA) | satisfied
Nc1ncnc2c1nc(Br)n2[C@@H]1O[C@@H]2COP(=O)(O)O[C@H]2[C@H]1O [8-Br-cAMP] | cAMP antibody (IBL cAMP-RIA) | not satisfied
CCCC(=O)Nc1ncnc2c1ncn2[C@@H]1O[C@@H]2COP(=O)(O)O[C@H]2[C@H]1O [6-MB-cAMP] | cAMP antibody (IBL cAMP-RIA) | not satisfied
CO[C@@H]1[C@@H]2OP(=O)(O)OC[C@H]2O[C@H]1n1c(Sc2ccc(Cl)cc2)nc2c(N)ncnc21 [8-pCPT-2′-OMe-cAMP] | cAMP antibody (IBL cAMP-RIA) | satisfied
Nc1ncnc2c1ncn2[C@@H]1O[C@@H]2COP(O)(=S)O[C@H]2[C@H]1O (single isomer, unassigned) [Rp-cAMPS] | cAMP antibody (IBL cAMP-RIA) | not satisfied
O=C(Nc1ncnc2c1ncn2[C@@H]1O[C@@H]2COP(=O)(O)OC2C1O)c1ccccc1 (stereo in doubt) [6-Bnz-cAMP] | cAMP antibody (IBL cAMP-RIA) | satisfied
